# reported DC50; entries follow
test target: KRAS (G12D) (Homo sapiens, UniProt P01116, G12D)
Construct: in-cell western with KRAS G12D antibody after 24 h
Sequence (P01116 1-188 isoform P01116-2 G12D): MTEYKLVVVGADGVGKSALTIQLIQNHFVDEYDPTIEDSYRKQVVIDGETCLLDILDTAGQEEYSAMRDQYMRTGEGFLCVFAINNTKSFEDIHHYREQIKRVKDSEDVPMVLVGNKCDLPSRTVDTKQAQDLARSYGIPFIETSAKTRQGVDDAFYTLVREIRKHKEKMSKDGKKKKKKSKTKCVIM
procedure summary: KRAS (G12D) cellular degradation assay in AsPC-1 cells
Assay type: cell-based
condition context: 24 hours, antibody fluorescence (Odyssey CLX), DC50 half-maximal degradation concentration

Below, each entry is followed by its recorded DC50 result.
molecule: CO[C@@H](C)COc1nc(N2C[C@H]3C[C@@H]2CN3)c2cc(C3CC3)c(-c3c(C)c(F)cc4n[nH]cc34)c(OCc3ccc(-c4cn([C@H](C(=O)N5C[C@H](O)C[C@H]5C(=O)N[C@@H](CO)c5ccc(-c6c(C)noc6C)cc5)C(C)C)nn4)cc3)c2n1 (single isomer, unassigned) [Example 6B]
test target: KRAS (G12D) (Homo sapiens, UniProt P01116, G12D)
result: > 1000 nM
--
molecule: CCn1nccc1-c1ccc([C@H](CO)NC(=O)[C@@H]2C[C@@H](O)CN2C(=O)[C@H](C(C)C)n2cc(-c3ccc(COc4c(-c5c(C)c(F)cc6[nH]ncc56)c(C5CC5)cc5c(N6C[C@@H]7C[C@H]6CN7)nc(OC6CC7(CCOC7)C6)nc45)cc3)nn2)cc1 (stereo partly shown)
test target: KRAS (G12D) (Homo sapiens, UniProt P01116, G12D)
result: < 10 nM
--
molecule: CO[C@@H](C)COc1nc(N2C[C@@H]3C[C@H]2CN3)c2cc(C3CC3)c(-c3c(C)c(F)cc4[nH]ncc34)c(OCc3ccc(-c4cn([C@H](C(=O)N5C[C@H](O)C[C@H]5C(=O)N[C@H](C#Cc5ccccc5Cl)CO)C(C)C)nn4)cc3)c2n1
test target: KRAS (G12D) (Homo sapiens, UniProt P01116, G12D)
result: 10 to 100 nM

Annotate the molecule CCn1nccc1-c1ccc([C@H](CO)NC(=O)[C@@H]2C[C@@H](O)CN2C(=O)[C@H](C(C)C)n2cc(-c3ccc(COc4c(-c5c(C)c(F)cc6[nH]ncc56)c(C5CC5)cc5c(N6C[C@H]7CN[C@H](C7)C6)nc(OC[C@H](C)OC)nc45)cc3)nn2)cc1 with its measured DC50.
10 to 100 nM

====

# reported DC50; entries follow
test target: KRAS (G12D) (Homo sapiens, UniProt P01116, G12D)
Construct: in-cell western with KRAS G12D antibody after 24 h
procedure summary: KRAS (G12D) cellular degradation assay in AsPC-1 cells
Type: cell-based
condition context: 24 hours, antibody fluorescence (Odyssey CLX), DC50 half-maximal degradation concentration
Experimental: ASPC-1 and PK-59 cellular assays ASPC-1 (ATCC cat. CRL-1682) and PK-59 (Nanjing Cobioer, Cat. No. CBP61184) were used in KRAS cellular degradation, pERK inhibition and proliferation assays. The two cell lines were maintained following vendor's instructions. […] Cells were incubated at 37° C. with 5% CO2 and cell density was monitored until ^~90% confluency was reached. […] Fluorescence signals were read on Odyssey CLX instrument. […]

Below, each entry is followed by its recorded DC50 result.
compound: CCn1nccc1-c1ccc([C@H](CO)NC(=O)[C@@H]2C[C@@H](O)CN2C(=O)[C@H](C(C)C)n2cc(-c3ccc(COc4c(-c5c(C)c(F)cc6[nH]ncc56)c(C5CC5)cc5c(N6C[C@@H]7C[C@H]6CN7)nc(OC6CCN(S(C)(=O)=O)CC6)nc45)cc3)nn2)cc1 [Example 38]
DC50: < 10 nM
//
compound: CCn1nccc1-c1ccc([C@H](CO)NC(=O)[C@@H]2C[C@@H](O)CN2C(=O)[C@H](C(C)C)n2cc(-c3ccc(COc4c(-c5c(C)c(F)cc6[nH]ncc56)c(C5CC5)cc5c(N(C)[C@H]6CCNC6)nc(OC[C@H](C)OC)nc45)cc3)nn2)c2c1CC2 [Example 169]
DC50: < 10 nM
//
compound: CO[C@@H](C)COc1nc(N2C[C@@H]3C[C@H]2CN3)c2cc(C3CC3)c(-c3c(C)c(F)cc4[nH]ncc34)c(OCc3ccc(-c4cn([C@H](C(=O)N5C[C@H](O)C[C@H]5C(=O)N[C@H](C#Cc5cnccc5Cl)CO)C(C)C)nn4)cc3)c2n1 [Example 108]
DC50: 10 to 100 nM
//
compound: CCn1nccc1-c1ccc([C@H](CO)NC(=O)[C@@H]2C[C@@H](O)CN2C(=O)[C@H](C(C)C)n2cc(-c3ccc(COc4c(-c5c(C)c(F)cc6[nH]ncc56)c(C5CC5)cc5c(N6CCNCC[C@@H]6C)nc(OC[C@H](C)OC)nc45)cc3)nn2)cc1 [Example 183]
DC50: 10 to 100 nM
//
compound: CO[C@@H](C)COc1nc(N2C[C@@H]3C[C@H]2CN3)c2cc(C3CC3)c(-c3c(C)c(F)c(F)c4[nH]ncc34)c(OCc3ccc(-c4cn([C@H](C(=O)N5C[C@H](O)C[C@H]5C(=O)N[C@H](c5ccc(-c6scnc6C)cc5)[C@H](C)O)C(C)C)nn4)cc3)c2n1 [Example 90]
DC50: < 10 nM
//
compound: CCn1nccc1-c1ccc([C@H](CO)NC(=O)[C@@H]2C[C@@H](O)CN2C(=O)[C@H](C(C)C)n2cc(-c3ccc(COc4c(-c5c(C)c(F)cc6[nH]ncc56)c(C5CC5)cc5c(N6C[C@H]7C[C@@H]6CN7)nc(OC6CCOCC6)nc45)cc3)nn2)cc1 (single isomer, unassigned) [Example 16B]
DC50: > 1000 nM
//
compound: Cc1ncsc1-c1ccc([C@@H](NC(=O)[C@@H]2C[C@@H](O)CN2C(=O)[C@H](C(C)C)n2cc(-c3ccc(COc4c(-c5c(C)c(F)cc6[nH]ncc56)c(C5CC5)cc5c(N6C[C@@H]7C[C@H]6CN7)nc(OC6CC7(COC7)C6)nc45)cc3)nn2)[C@@H](C)O)cc1 [Example 150]
DC50: < 10 nM
//
compound: CCn1nccc1-c1ccc([C@H](CO)NC(=O)[C@@H]2C[C@@H](O)CN2C(=O)[C@H](C(C)C)n2cc(-c3ccc(COc4c(-c5c(C)c(F)cc6[nH]ncc56)c(C5CC5)cc5c(N6C[C@@H]7C[C@H]6CN7)nc(N6CC(OC)C6)nc45)cc3)nn2)cc1 [Example 126]
DC50: 10 to 100 nM
//
compound: CCn1nccc1-c1ccc([C@H](CO)NC(=O)[C@@H]2C[C@@H](O)CN2C(=O)[C@H](C(C)C)n2cc(-c3ccc(COc4c(-c5c(C)c(F)cc6[nH]ncc56)c(C5CC5)cc5c(N6CCC[C@](C)(O)C6)nc(OC[C@H](C)OC)nc45)cc3)nn2)cc1 [Example 39]
DC50: 10 to 100 nM
//
compound: CCn1nccc1-c1ccc([C@H](CO)NC(=O)[C@@H]2C[C@@H](O)CN2C(=O)[C@H](C(C)C)n2cc(-c3ccc(COc4c(-c5c(C)c(F)cc6[nH]ncc56)c(C5CC5)cc5c(N6CC7CCC(C6)N7)nc(OC[C@H](C)OC)nc45)cc3)nn2)cc1 (single isomer, unassigned) [Example 13B]
DC50: > 1000 nM

Field: next compound
Annotate the compound CO[C@@H](C)COc1nc(N2CCNCC[C@H]2C)c2cc(C3CC3)c(-c3c(C)c(F)cc4[nH]ncc34)c(OCc3ccc(-c4cn([C@H](C(=O)N5C[C@H](O)C[C@H]5C(=O)N[C@@H](CO)c5ccc(-c6scnc6C)cc5)C(C)C)nn4)cc3)c2n1 [Example 189] with its measured DC50.
< 10 nM

====

test target: KRAS (G12D) (Homo sapiens, UniProt P01116, G12D)
Construct: in-cell western with KRAS G12D antibody after 24 h
procedure summary: KRAS (G12D) cellular degradation assay in AsPC-1 cells
Format: cell-based
condition context: 24 hours, antibody fluorescence (Odyssey CLX), DC50 half-maximal degradation concentration
# reported DC50; entries follow

Annotate the compound CO[C@@H](C)COc1nc(N2C[C@@H]3C[C@H]2CN3)c2cc(C3CC3)c(-c3c(C)c(F)cc4[nH]ncc34)c(OCc3ccc(-c4cn([C@H](C(=O)N5C[C@H](O)C[C@H]5C(=O)N[C@H](C#Cc5cccc(F)c5)CO)C(C)C)nn4)cc3)c2n1 with its measured DC50.
< 10 nM

Annotate the compound CO[C@@H](C)COc1nc(N2CCCNCC2)c2cc(C3CC3)c(-c3c(C)c(F)cc4[nH]ncc34)c(OCc3ccc(-c4cn([C@H](C(=O)N5C[C@H](O)C[C@H]5C(=O)N[C@@H](CO)c5ccc(-c6scnc6C)cc5)C(C)C)nn4)cc3)c2n1 with its measured DC50.
< 10 nM

Annotate the compound CO[C@H]1C[C@@H](Oc2nc(N3C[C@@H]4C[C@H]3CN4)c3cc(C4CC4)c(-c4c(C)c(F)cc5[nH]ncc45)c(OCc4ccc(-c5cn([C@H](C(=O)N6C[C@H](O)C[C@H]6C(=O)N[C@H](c6ccc(-c7scnc7C)cc6)[C@H](C)O)C(C)C)nn5)cc4)c3n2)C1 with its measured DC50.
< 10 nM

Annotate the compound CO[C@@H](C)COc1nc(N2C[C@H]3C[C@@H]2CN3)c2cc(C3CC3)c(-c3c(C)c(F)cc4[nH]ncc34)c(OCc3ccc(-c4cn([C@H](C(=O)N5C[C@H](O)C[C@H]5C(=O)NCc5ccc(-c6scnc6C)cc5)C(C)C)nn4)cc3)c2n1 (single isomer, unassigned) [Example 11A] with its measured DC50.
10 to 100 nM

Annotate the compound CCn1nccc1-c1ccc([C@H](CO)NC(=O)[C@@H]2C[C@@H](O)CN2C(=O)[C@H](C(C)C)n2cc(-c3ccc(COc4c(-c5c(C)c(F)cc6[nH]ncc56)c(C5CC5)cc5c(N6C[C@@H]7C[C@H]6CN7)nc(O[C@H]6C[C@H](OC)C6)nc45)cc3)nn2)c2c1CC2 with its measured DC50.
< 10 nM

Annotate the compound CCn1nccc1-c1ccc([C@@H](NC(=O)[C@@H]2C[C@@H](O)CN2C(=O)[C@H](C(C)C)n2cc(-c3ccc(COc4c(-c5c(C)c(F)cc6[nH]ncc56)c(C5CC5)cc5c(N6CCCNCC6)nc(O[C@H]6C[C@H](OC)C6)nc45)cc3)nn2)[C@H](C)O)cc1 with its measured DC50.
< 10 nM

Annotate the compound CO[C@@H](C)COc1nc(N2C[C@@H]3C[C@H]2CN3)c2cc(C3CC3)c(-c3c(C)c(F)cc4[nH]ncc34)c(OCc3ccc(-c4cn([C@H](C(=O)N5C[C@H](O)C[C@H]5C(=O)N[C@H](C#Cc5ccnc6nn(C)cc56)CO)C(C)C)nn4)cc3)c2n1 with its measured DC50.
10 to 100 nM
